test: LNP size and polydispersity by DLS (Malvern Panalytical); assay type: physicochemical; conditions: LNP polydispersity, mRNA LNPs of Table 18
recorded metric: PDI

>>> reported_measurement("ARK013: mRNA: SP + mru0143 + STOP; SEQ ID NO: 16687 (nucleic acid, listed as DNA, chemistry not fully specified) ATGTTCGTGTTCCTCGTGCTCCTGCCCCTCGTCTCCAGCCAGTGCGTGTACCTCATGACACTCCCCCTGGACGGACTCGGGCACCCCTTCCCCCTGCCATGA")
0.1841
>>> reported_measurement("ARK005: mRNA: SP + WP_011033493.1 (Methanosarcina mazei) + TM/C; SEQ ID NO: 16680 (nucleic acid, listed as DNA) ATGTTCGTGTTCCTCGTGCTCCTGCCCCTCGTCTCCAGCCAGTGCGTGTACCTCATGACGGTGGTGCTCGGACACCCATTCCCGCTGACACCCTGGTACATCTGGCTGGGCTTCATCGCAGGACTGATCGCCATCGTCATGGTCACCATAATGCTCTGTTGCATGACCTCCTGCTGTAGCTGCCTGAAAGGCTGTTGCAGCTGCGGGAGCTGCTGCAAATTCGACGAAGACGATAGCGAACCTGTGCTCAAAGGGGTGAAGTTGCATTACACATAGTGA")
0.064

Taken from patent US20240189408A1.
